System: ISC-enriched organoids
Assay: Primary screen, 384-well 2.5-D organoid differentiation (ENR+CD, 6 days, Target Selective Inhibitor Library, vs whole-plate median): ATP (CellTiter-Glo 3D, CTG)
Conditions: Dose 0.08 uM; primary screen, vs plate median
Consider the following partition of reported Dose.FC.CTG (log 2 fold change) into named classes: low-valued (below 0.1), mid-valued (0.1 to below 0.2), high-valued (0.2 or more)

>>> label_class("Cc1ccc(S(=O)(=O)Cc2nc(-c3ccc(C(=O)NCc4cccnc4)cc3)oc2C)cc1")
"low-valued"
>>> label_class("CC(C)(C)c1cc(NC(=O)Nc2ccc(-c3cn4c(n3)sc3cc(OCCN5CCOCC5)ccc34)cc2)no1")
"high-valued"
>>> label_class("CCOC(=O)c1ccc(N2NC(=O)/C(=C/c3ccc([N+](=O)[O-])o3)C2=O)cc1")
"high-valued"
>>> label_class("CN1CCC(CNc2ccc3ncc(-c4cccc(OC(F)(F)F)c4)n3n2)CC1 [SGI-1776free base]")
"mid-valued"
>>> label_class("O=S(=O)(c1ccccc1)c1cnc2c(N3CCNCC3)cccc2c1")
"low-valued"
>>> label_class("Cc1cn([C@H]2C=C[C@@H](CO)O2)c(=O)[nH]c1=O")
"low-valued"
>>> label_class("Oc1ccc(Nc2nc(-c3ccc(Cl)cc3)cs2)cc1")
"high-valued"
>>> label_class("COc1cc(Br)c(Nc2nc(-c3c(C)nc4ncccn34)cs2)c(Br)c1")
"low-valued"
>>> label_class("Nc1ccc(C(=O)[O-])c(O)c1.[Na+] [Sodium 4-Aminosalicylate]")
"mid-valued"
>>> label_class("CCn1c(N)c(C(=O)NC)c(=O)c2ccc(C#C[C@@](C)(O)COC)nc21")
"mid-valued"
>>> label_class("Cl.NC(=O)c1cnc(N[C@@H]2CCCC[C@@H]2N)nc1Nc1cccc(-n2nccn2)c1 [PRT062607 (P505-15, BIIB057) HCl]")
"low-valued"
>>> label_class("O=C(Nc1ccccc1Br)N[C@@H]1CCN(c2ccc(C(F)(F)F)cn2)C1")
"mid-valued"
>>> label_class("O=C(Nc1ccccc1-c1cn2c(CN3CCNCC3)csc2n1)c1cnc2ccccc2n1")
"high-valued"

----------
System: ISC-enriched organoids
Assay: Primary screen, 384-well 2.5-D organoid differentiation (ENR+CD, 6 days): basal lysozyme secretion (LYZ.NS)
Assay type: cell-based, murine
Conditions: Dose 0.08 uM; primary screen
Classification field: enter label 1 for Z.LYZ.NS (standard z score) values not below 0.2, label 0 for values below it.

>>> label_class("NC(=O)c1ccc(-c2nc(-c3ccccn3)c(-c3ccc4c(c3)OCO4)[nH]2)cc1")
"label 1"
>>> label_class("Cc1ccc(S(=O)(=O)Cc2nc(-c3ccc(C(=O)NCc4cccnc4)cc3)oc2C)cc1")
"label 0"
>>> label_class("Cl.NC(=O)c1cnc(N[C@@H]2CCCC[C@@H]2N)nc1Nc1cccc(-n2nccn2)c1 [PRT062607 (P505-15, BIIB057) HCl]")
"label 0"
>>> label_class("Cn1cnc2c(F)c(Nc3ccc(Br)cc3Cl)c(C(=O)NOCCO)cc21")
"label 0"
>>> label_class("O=C(Nc1ccncc1)c1cc([N+](=O)[O-])ccc1Cl")
"label 0"
>>> label_class("Cc1nn(-c2ccccc2)c(C)c1/C=N/N1CCN(Cc2ccccc2)CC1")
"label 1"

Reference source for all entries: patent US20230398130A1
